Test: Inhibition of recombinant Staphylococcus aureus DNA polymerase 3C expressed in Escherichia coli BL21 cells assessed as assessed as reduction in [3H]dTTP incorporation in to activated calf thymus DNA using calf thymus DNA as substrate incubated for 30 mins by scintillation counting analysis
pIC50: −log10 of the molar value.
Observed property: pIC50

{"Record smiles": "CCc1cc(Nc2nc(O)c3c[nH]nc3n2)ccc1C", "Observed property": "pIC50", "Endpoint result": 4.15}

###

Assay: Inhibition of Staphylococcus aureus R27 DNA polymerase 3C using activated calf thymus DNA as substrate in presence of dATP/dGTP/dCTP/[3H]dTTP measured for 20 mins

{"Record smiles": "CCc1cc(Nc2cc(Oc3ccc(Br)cc3)nc(N)n2)ccc1C", "IC50 [µM]": 10}
